Biological target: human activated kallikrein enzyme (Homo sapiens)
Sequence (P03952 391-638 limits assumed): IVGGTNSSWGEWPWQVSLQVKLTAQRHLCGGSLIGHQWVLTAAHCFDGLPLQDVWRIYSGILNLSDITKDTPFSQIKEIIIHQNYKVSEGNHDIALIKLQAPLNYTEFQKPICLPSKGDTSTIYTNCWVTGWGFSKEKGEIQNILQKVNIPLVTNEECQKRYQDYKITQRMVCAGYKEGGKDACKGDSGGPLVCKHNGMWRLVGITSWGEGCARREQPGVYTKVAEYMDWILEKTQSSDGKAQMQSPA
Sequence (P03952 20-390 partner limits assumed): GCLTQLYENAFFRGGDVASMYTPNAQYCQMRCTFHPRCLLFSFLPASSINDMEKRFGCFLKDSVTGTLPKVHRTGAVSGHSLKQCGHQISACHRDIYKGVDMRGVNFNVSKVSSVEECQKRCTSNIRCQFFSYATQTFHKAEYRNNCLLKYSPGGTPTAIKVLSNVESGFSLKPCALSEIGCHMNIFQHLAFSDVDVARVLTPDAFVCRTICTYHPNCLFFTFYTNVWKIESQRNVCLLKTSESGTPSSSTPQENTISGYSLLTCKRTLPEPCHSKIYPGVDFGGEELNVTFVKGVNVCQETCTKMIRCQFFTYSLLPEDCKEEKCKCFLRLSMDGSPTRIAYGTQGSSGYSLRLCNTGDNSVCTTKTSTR
Experiment: Inhibition of human activated kallikrein enzyme, fluorogenic peptide substrate assay (500 pM enzyme format)
Conditions: 500 pM activated kallikrein, 300 μM PFR-AMC substrate, 30 min preincubation, 10 min reaction, room temperature; read-out: Primary Dose Response Assay: Average EC50
The entries below come with measured EC50 values attached.

Answered cases to consult:
* CC(Cc1cccc(Cl)c1)C(=O)Nc1cc(NCc2cn3cc(C4CC4)ccc3n2)ncn1 (stereo not shown) | 500 to 9000 nM
* O=C(O)CCc1cc(C2CC2)cn2cc(CNc3cc(NC(=O)Cc4ncn5ccc(Cl)cc45)ncn3)nc12 | ≤ 5 nM
* O=C(COc1cc(Cl)ccc1-n1cnnn1)Nc1cc(NCc2cn3cc(C4CC4)ccc3n2)ccn1 | 5 to 50 nM
* CC(C)(Cc1cc(C2CC2)cn2cc(CNc3cc(NC(=O)Cc4ncn5ccc(Cl)cc45)ncn3)nc12)C(=O)O | ≤ 5 nM
* O=C(Cc1ncn2ccc(Cl)cc12)Nc1cc(OCc2cn3cc(C4CC4)ccc3n2)cnn1 | ≤ 5 nM
* O=C(Cc1cc2c(Cl)c[nH]c2cc1F)Nc1cc(NCc2cn3cc(C4CC4)ccc3n2)ncn1 | 500 to 9000 nM

Attention now shifts to the item below.
**Query** Look up EC50: O=C(Cc1cnc2[nH]cc(Cl)c2c1)Nc1cc(NCc2cn3cc(C4CC4)ccc3n2)ccn1
**Result** ≤ 5 nM

Reference source: patent US20240382482A1
